Please provide measured melting point for the entries that follow.

compound: COC(=O)c1nc(SC)n(-c2ccccc2)c1C(=O)OC
parameter: melting point
recorded-result: 121 to 122 °C

Hi there! I need melting point for each item below, if you can.
1. CC(=O)OC1CCC2(C)C3CCC4(C)C(C(C)CCCC(C)(C)O)CCC4C3CCC2(O)C1 (stereo unspecified)
2. Nc1ccc2c(c1)C(=O)N(c1ccc3ccsc3c1)C2
3. CCCCc1nc2c(N)nc3ccc(OCCC4CCNCC4)cc3c2n1C
4. CCCCCCCCCCC[C@H](CC(=O)N[C@H](CO)C(=O)OCc1ccccc1)OC(=O)CCCCCCCCC
5. CCNC(=O)NC(=S)N1N=C(c2ccc([N+](=O)[O-])cc2)c2cc3c(cc2CC1C)OCO3 (stereo unspecified)
6. COc1cc2ncnc(N3c4ccccc4CC3C)c2cc1OC (stereo unspecified)
7. CC=Cc1ccc(CCNS(=O)(=O)c2ccc(Cl)cc2)cc1

output:
["180 to 182 °C", "233 to 236 °C", "210 to 212 °C", "51 to 52 °C", "176 to 177 °C", "154 to 156 °C", "153 to 155 °C"]

====

Answer each item with its documented melting point.

Study these solved cases before continuing.
compound: Cc1ccc(N)c(C(=O)c2ccccc2)c1
parameter: melting point
recorded-result: 64 to 66 °C
--
compound: COc1ccc(C(=O)c2cc3ccccc3o2)c(Cl)c1Cl
parameter: melting point
recorded-result: 148 °C
--
compound: CC(=O)Nc1ccc(OCC2CCN(c3ccncc3)CC2)cc1
parameter: melting point
recorded-result: 226 to 228 °C

Need melting point for each of these compounds.
1. CN(C)C(=O)Nc1snc(S(C)=O)c1C#N (stereo unspecified)
2. O=Cc1ccc(OCc2coc(/C=C/c3ccc(S(=O)C(F)(F)F)cc3)n2)cc1 (stereo unspecified)
3. CCCCCCCc1ccc(C(=O)c2ccc(C(=O)O)cc2)cc1

output:
["178 to 179 °C", "144 to 147 °C", "181 °C"]

Field: melting point. Fill in for each record below.
1. O=Cc1cccc2c1[nH]c1c3cc(Br)ccc3oc21
2. Cc1c(NC(=O)c2ccc(-c3ccc(F)cc3)cc2)ccc2cc(CN3CCC(CCCC(=O)N(C)C)CC3)cnc12
3. CCN1CC2CCCC2C1CNC(=O)c1cc(S(N)(=O)=O)ccc1OC (stereo unspecified)
4. CC12CCC3c4ccc(OCc5ccccc5)c(N)c4CCC3C1CCC2=O (stereo unspecified)
5. Fc1cccc(CSc2nnc(-c3ccc4occc4c3)o2)c1
6. NC1(C2CCCC2)NC=Nc2[nH]cc(-c3cccc(Oc4ccccc4)c3)c21 (stereo unspecified)
7. CCOC(=O)CSc1cc(Cl)nc(NCc2ccc(Cl)cc2)n1
8. COc1ccc(C2CC(c3ccc(O)cc3)C2)cc1 (stereo unspecified)

output:
1. 280 to 281 °C
2. 202 to 204 °C
3. 232 °C
4. 219 to 221 °C
5. 112 to 113 °C
6. 128 °C
7. 122 to 125 °C
8. 96 to 110 °C

I'm hoping you can list melting point for every compound here, please.
1. CCCCN(CCCC)C(=O)CC(C)Nc1c(C#N)cnn1-c1ccc(Cl)c(Cl)c1Cl (stereo unspecified)
2. CSC(C(=O)c1nsc(NC=O)n1)S(C)=O (stereo unspecified)
3. Cn1ccnc1C1(CCCCc2ccc(N3C(=O)c4ccccc4C3=O)cc2)c2ccccc2-c2ccccc21

output:
1: 101 to 103 °C; 2: 130 to 132 °C; 3: 76 to 80 °C
